# ASSAY_SYSTEM: THR beta (Homo sapiens, UniProt P10828)
# Construct: expressed in transfected cells; host or cells: HEK293T (ATCC CRL-3216)
# Sequence (P10828 whole entry): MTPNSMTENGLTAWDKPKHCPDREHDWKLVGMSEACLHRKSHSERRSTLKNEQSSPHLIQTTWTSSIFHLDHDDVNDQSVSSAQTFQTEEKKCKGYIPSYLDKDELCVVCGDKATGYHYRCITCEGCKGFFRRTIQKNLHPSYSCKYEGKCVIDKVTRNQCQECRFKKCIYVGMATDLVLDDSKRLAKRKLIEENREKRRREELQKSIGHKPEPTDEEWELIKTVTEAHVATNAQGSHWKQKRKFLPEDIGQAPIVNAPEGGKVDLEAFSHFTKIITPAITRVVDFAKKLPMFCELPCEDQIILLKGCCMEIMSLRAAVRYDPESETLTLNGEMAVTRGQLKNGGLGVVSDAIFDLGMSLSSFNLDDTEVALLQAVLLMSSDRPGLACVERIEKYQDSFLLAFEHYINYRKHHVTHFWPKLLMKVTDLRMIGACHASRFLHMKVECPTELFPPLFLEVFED
# Sequence (P19793 whole entry partner): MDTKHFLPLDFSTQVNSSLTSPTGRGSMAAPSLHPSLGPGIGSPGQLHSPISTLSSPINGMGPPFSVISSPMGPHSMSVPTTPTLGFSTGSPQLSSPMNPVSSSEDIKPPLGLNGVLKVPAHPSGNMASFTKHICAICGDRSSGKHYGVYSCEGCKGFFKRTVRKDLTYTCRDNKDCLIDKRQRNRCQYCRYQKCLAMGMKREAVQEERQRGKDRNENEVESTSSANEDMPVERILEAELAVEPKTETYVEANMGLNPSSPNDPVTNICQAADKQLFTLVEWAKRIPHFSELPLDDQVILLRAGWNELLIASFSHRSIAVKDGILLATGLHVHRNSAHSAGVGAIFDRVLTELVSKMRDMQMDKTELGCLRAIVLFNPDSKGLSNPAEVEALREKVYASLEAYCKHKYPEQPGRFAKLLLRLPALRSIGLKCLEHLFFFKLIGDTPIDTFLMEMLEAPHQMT
# PROTOCOL_DETAILS: HEK293T THR beta/RXR luciferase reporter assay (Assay 2)
# Format: cell-based
# PARTICULARS: HEK-293T; Table 5; Assay 2; THRβ; read-out: Activity category Assay 2 THRβ (Emax)
Quick reference: Emax of the listed items.

Completed entries (count: 2):
*Q* Look at this compound and give its reported Emax. Cc1cc(-n2nc(C#N)c(=O)[nH]c2=O)cc(C)c1Cc1ccc2[nH]cc(C(C)C)c2n1 [Compound 31]
*A* > 75%

*Q* Look at this compound and give its reported Emax. CC1(C)C(=O)Nc2nnc(Oc3c(Cl)cc(-n4nc(C#N)c(=O)[nH]c4=O)cc3Cl)cc21 [Compound 74]
*A* < 50%

Here is another compound to look at.
*Q* Look at this compound and give its reported Emax. Cc1cc(-n2ncc(=O)[nH]c2=O)cc(C)c1Cc1ccc2c(c1)C1(CC1)C(=O)N2 [Compound 152]
*A* 50 to 75%

====

Quick reference: Emax of the listed items.
# ASSAY_SYSTEM: human thyroid receptor beta ligand-binding domain (LBD) (Homo sapiens, UniProt P10828)
# Construct: purchased Invitrogen
# PROTOCOL_DETAILS: TR-FRET thyroid receptor beta coactivator assay (THR biochemical assay, Assay 1)
# PARTICULARS: Table 5; Assay 1; THRβ; read-out: Activity category Assay 1 THRβ (Emax)

Completed entries (count: 3):
*Q* Look at this molecule and give its reported Emax. CC(C)c1cc(Oc2c(Cl)cc(-n3nc(N)c(=O)[nH]c3=O)c3c2CC3)n[nH]c1=O
*A* 50 to 75%

*Q* Look at this molecule and give its reported Emax. Nc1nn(-c2cc(Cl)c(Oc3n[nH]c(=O)cc3-c3ccn4cncc4c3)c(Cl)c2)c(=O)[nH]c1=O
*A* < 50%

*Q* Look at this molecule and give its reported Emax. Nc1nn(-c2cc(Cl)c(Oc3cc(C4CC(F)(F)C4)c(=O)[nH]n3)c(Cl)c2)c(=O)[nH]c1=O
*A* < 50%

More entries:
*Q* Look at this molecule and give its reported Emax. Cc1cc(-n2nc(N)c(=O)[nH]c2=O)cc(C)c1Oc1cc(C(C)C)c(=O)[nH]n1
*A* 50 to 75%

*Q* Look at this molecule and give its reported Emax. CCc1cccc(-c2cc(=O)[nH]nc2Oc2c(Cl)cc(-n3nc(N)c(=O)[nH]c3=O)cc2Cl)c1
*A* < 50%

====

# ASSAY_SYSTEM: THR alpha (Homo sapiens, UniProt P10827)
# Construct: expressed in transfected cells; host or cells: HEK293T (ATCC CRL-3216)
# Sequence (P10827 1-410 isoform P10827-2): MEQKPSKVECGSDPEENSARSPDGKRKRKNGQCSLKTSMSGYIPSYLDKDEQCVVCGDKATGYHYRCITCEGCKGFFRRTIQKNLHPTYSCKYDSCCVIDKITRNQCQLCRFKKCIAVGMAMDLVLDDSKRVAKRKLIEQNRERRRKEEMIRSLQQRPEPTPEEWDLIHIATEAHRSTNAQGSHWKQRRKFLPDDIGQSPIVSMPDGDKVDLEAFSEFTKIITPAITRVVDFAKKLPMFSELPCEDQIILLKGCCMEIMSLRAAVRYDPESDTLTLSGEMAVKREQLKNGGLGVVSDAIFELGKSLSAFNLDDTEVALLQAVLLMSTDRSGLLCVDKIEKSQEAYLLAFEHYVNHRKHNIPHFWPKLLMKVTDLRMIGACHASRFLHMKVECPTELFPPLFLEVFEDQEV
# Sequence (P19793 whole entry partner): as the sequence (P19793 whole entry partner) above
# PROTOCOL_DETAILS: HEK293T THR alpha/RXR luciferase reporter assay (Assay 2)
# Type: cell-based
# PARTICULARS: Table 4; THR-alpha; Assay 2; read-out: Activity category Assay 2 (EC50, THR-alpha agonist activity)
OBSERVATION_TYPE: EC50

Completed entries (count: 2):
*Q* Look at this compound and give its reported EC50. CC(c1ccccc1)c1cc(Oc2c(Cl)cc(-n3nc(N)c(=O)[nH]c3=O)cc2Cl)n[nH]c1=O (single isomer, unassigned) [Compound 164]
*A* 0.25 to 1 µM

*Q* Look at this compound and give its reported EC50. Cc1cc(-n2nc(N)c(=O)[nH]c2=O)cc(C)c1Cc1ccc2[nH]c(=O)n(C(C)C)c2c1 [Compound 149]
*A* < 0.05 µM

More entries:
*Q* Look at this compound and give its reported EC50. Cc1cc(-n2nc(C#N)c(=O)[nH]c2=O)cc(C)c1Oc1ccc2[nH]cc(C(C)C)c2c1 [Compound 2]
*A* 0.25 to 1 µM
